Target: unrelated Fc-fused recombinant protein (negative control)
Assay: ELISA, bacterial lysate on plate-bound antigen, luminescence
Recorded ELISA Fc Control (RLU) values for a group of binders are listed next.
Just the number in RLU, nothing appended.

Worked examples, 3 binders total:
ISOP120BR5P1A10 (designed binder, not shown: small tags and cut ends, FN3 domain (Centyrin); tested as E. coli lysate) LPAPKNLVVSRVTEDSARLSWTEEDITHLRFDSFLIQYQESEKVGEAIVLTVPGSERSYDLTGLKPGTEYTVSIYGVYWTWWVRWNSNPLSAIFTT
36200
ISOP120GR5P1G3 (designed binder, not shown: small tags and cut ends, FN3 domain (Centyrin); tested as E. coli lysate) LPAPKNLVVSRVTEDSARLSWTAPDAAFDSFYIRYWEFCHSGEAIELSVPGSERSYDLTGLKPGTEYFVRIVGVKGGRVSLPLGAKFTT
320
ISOP120AR5P1D9 (designed binder, not shown: small tags and cut ends, FN3 domain (Centyrin); tested as E. coli lysate) LPAPKNLVVSRVTEDSARLSWNTDWVHTFDSFLIQYQESEKVGEAIVLTVPGSERSYDLTGLKPGTEYTVSIYGVGRHYTVYDSNPLSAIFTT
320

Data point: ISOP120AR5P1B12 (designed binder, not shown: small tags and cut ends, FN3 domain (Centyrin)) LPAPKNLVVSRVTEDSARLSWDGDKWANFKFDSFLIQYQESEKVGEAIVLTVPGSERSYDLTGLKPGTEYTVSIYGVGLHYIVYDSNPLSAIFTT ; ELISA Fc Control (RLU) = 400

Recorded result, ISOP120BR5P1C1 (designed binder, not shown: small tags and cut ends, FN3 domain (Centyrin); tested as E. coli lysate) LPAPKNLVVSRVTEDSARLSWVREDAYAFDSFLIQYQESEKVGEAIVLTVPGSERSYDLTGLKPGTEYTVSIYGVSSLHWVVHDSNPLSAIFTT , ELISA Fc Control (RLU): 480

Looking up ISOP120FR5P1A6 (designed binder, not shown: small tags and cut ends, FN3 domain (Centyrin); tested as E. coli lysate) LPAPKNLVVSRVTEDSARLSWTAPDAAFDSFIIRYLEDISYGEAIVLTVPGSERSYDLTGLKPGTEYHVGIEGVKGGNVSFPLSAIFTT , I see its ELISA Fc Control (RLU) listed as 400
